# experimentalTarget: HIV-1 RT associated RNase H (Human immunodeficiency virus type 1 group M subtype B, UniProt P04585)
# Construct: final concentration of 2.5 nM of the p51/p66 RT heterodimer in the assay; made in house
# experimentDescription: FRET RNase H assay, inhibition of HIV-1 RT associated RNase H
# Assay type: biochemical
# conditionParameters: 1.5 nM p51/p66 RT, 100 nM 3'-fluorescein-RNA/5'-DABCYL-DNA substrate, 37° C., 15 min preincubation; read-out: IC50 for BBNH obtained with the FRET assay
metricName: IC50 (µM)
Answer with a number only, understood to be in µM.

### Prompt Need IC50, item CC(C)(C)c1ccc(C(=O)NN=Cc2c(O)ccc3ccccc23)cc1 [BBNH]
### Response 2.6
